The reported numbers originate from ChEMBL document CHEMBL2396604.

Target: Ionotropic glutamate receptor NMDA 1/2D (Rattus norvegicus, UniProt P35439+Q62645)
Sequence (Q62645 whole entry, other chains not shown): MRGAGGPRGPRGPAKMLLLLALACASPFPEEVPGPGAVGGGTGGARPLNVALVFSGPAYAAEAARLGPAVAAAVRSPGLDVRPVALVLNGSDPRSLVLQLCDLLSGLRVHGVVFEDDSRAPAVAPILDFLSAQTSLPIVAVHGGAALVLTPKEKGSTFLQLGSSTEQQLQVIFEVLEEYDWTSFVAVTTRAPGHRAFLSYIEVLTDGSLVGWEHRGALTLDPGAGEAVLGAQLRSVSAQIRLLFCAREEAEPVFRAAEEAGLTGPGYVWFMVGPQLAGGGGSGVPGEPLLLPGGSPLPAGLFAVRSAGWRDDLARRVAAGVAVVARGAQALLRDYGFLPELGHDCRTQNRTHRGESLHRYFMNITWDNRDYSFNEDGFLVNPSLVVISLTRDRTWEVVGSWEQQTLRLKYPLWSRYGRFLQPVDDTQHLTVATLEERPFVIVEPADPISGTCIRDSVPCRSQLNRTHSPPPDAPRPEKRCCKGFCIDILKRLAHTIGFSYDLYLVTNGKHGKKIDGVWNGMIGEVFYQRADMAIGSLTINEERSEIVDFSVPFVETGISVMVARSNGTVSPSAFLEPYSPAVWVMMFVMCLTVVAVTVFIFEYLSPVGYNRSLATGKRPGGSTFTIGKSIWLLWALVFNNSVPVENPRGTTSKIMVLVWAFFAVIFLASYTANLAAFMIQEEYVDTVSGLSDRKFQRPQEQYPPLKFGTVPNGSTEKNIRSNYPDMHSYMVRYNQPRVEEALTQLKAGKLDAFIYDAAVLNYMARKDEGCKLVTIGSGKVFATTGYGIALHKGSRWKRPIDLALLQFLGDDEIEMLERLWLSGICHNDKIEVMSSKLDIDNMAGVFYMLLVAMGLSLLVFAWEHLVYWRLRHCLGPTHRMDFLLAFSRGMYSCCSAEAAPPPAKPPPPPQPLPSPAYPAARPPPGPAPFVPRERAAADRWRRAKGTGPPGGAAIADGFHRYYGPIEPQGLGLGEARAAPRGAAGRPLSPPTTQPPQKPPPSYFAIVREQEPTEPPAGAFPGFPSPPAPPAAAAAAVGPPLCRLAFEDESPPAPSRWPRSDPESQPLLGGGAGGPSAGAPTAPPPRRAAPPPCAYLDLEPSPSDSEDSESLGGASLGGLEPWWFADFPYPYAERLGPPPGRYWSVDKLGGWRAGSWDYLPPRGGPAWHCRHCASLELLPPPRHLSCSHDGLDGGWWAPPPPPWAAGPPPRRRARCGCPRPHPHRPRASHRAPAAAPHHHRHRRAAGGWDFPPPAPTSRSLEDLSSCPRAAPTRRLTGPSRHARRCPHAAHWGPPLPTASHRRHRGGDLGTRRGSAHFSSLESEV
Assay: Activity at rat recombinant GluN1/GluN2D receptor assessed as potentiation of glycine/glutamate-induced activation by two-electrode voltage clamp technique
measured.property: EC50

INSERT INTO results (molecule, system_under_test, endpoint_result) VALUES
  ('COc1ccc(OCC2c3cc(OC)c(OC)cc3CCN2C(=O)c2ccc(Cl)c(Cl)c2)cc1 (racemic)', 'Ionotropic glutamate receptor NMDA 1/2D (Rattus norvegicus, UniProt P35439+Q62645)', '24 µM'),
  ('COc1ccc(OCC2c3cc(OC)c(OC)cc3CCN2C(=O)c2cccc(-c3ccccc3)c2)cc1 (racemic)', 'Ionotropic glutamate receptor NMDA 1/2D (Rattus norvegicus, UniProt P35439+Q62645)', '3.6 µM'),
  ('COc1ccc(OCC2c3ccc(OC)cc3CCN2C(=O)c2cccc(C(C)=O)c2)cc1 (racemic)', 'Ionotropic glutamate receptor NMDA 1/2D (Rattus norvegicus, UniProt P35439+Q62645)', '32 µM'),
  ('COc1ccc(OCC2c3cc(OC)c(OC)cc3CCN2C(=O)c2cccc(C#N)c2)cc1 (racemic)', 'Ionotropic glutamate receptor NMDA 1/2D (Rattus norvegicus, UniProt P35439+Q62645)', '7.7 µM'),
  ('COc1ccc(OCC2c3c(cc(OC)cc3OC)CCN2C(=O)c2ccccc2)cc1 (racemic)', 'Ionotropic glutamate receptor NMDA 1/2D (Rattus norvegicus, UniProt P35439+Q62645)', '14 µM'),
  ('COc1ccc(OCC2c3cc(C)c(C)cc3CCN2C(=O)c2cccc(Br)c2)cc1 (racemic)', 'Ionotropic glutamate receptor NMDA 1/2D (Rattus norvegicus, UniProt P35439+Q62645)', '1.1 µM'),
  ('COc1ccc(/C=C/C2c3cc(OC)c(OC)cc3CCN2C(=O)c2cccc(Cl)c2)cc1 (racemic)', 'Ionotropic glutamate receptor NMDA 1/2D (Rattus norvegicus, UniProt P35439+Q62645)', '1.3 µM'),
  ('COc1ccc(/C=C/C2c3ccc(OC)cc3CCN2C(=O)c2cccc(Br)c2)cc1 (racemic)', 'Ionotropic glutamate receptor NMDA 1/2D (Rattus norvegicus, UniProt P35439+Q62645)', '1.7 µM'),
  ('COc1ccc(OCC2c3c(cc(OC)cc3OC)CCN2C(=O)c2cccc(Cl)c2)cc1 (racemic)', 'Ionotropic glutamate receptor NMDA 1/2D (Rattus norvegicus, UniProt P35439+Q62645)', '9.2 µM'),
  ('COc1ccc(OCC2c3cc(OC)c(OC)cc3CCN2C(=S)Nc2cccc(C)c2)cc1 (racemic)', 'Ionotropic glutamate receptor NMDA 1/2D (Rattus norvegicus, UniProt P35439+Q62645)', '4.9 µM'),
  ('COc1ccc(OCC2c3ccc(OCc4ccccc4)cc3CCN2C(=O)c2cccc(Cl)c2)cc1 (racemic)', 'Ionotropic glutamate receptor NMDA 1/2D (Rattus norvegicus, UniProt P35439+Q62645)', '0.4 µM'),
  ('COc1ccc(OCC2c3ccc(C)cc3CCN2C(=O)c2cccc(Cl)c2)cc1 (racemic)', 'Ionotropic glutamate receptor NMDA 1/2D (Rattus norvegicus, UniProt P35439+Q62645)', '4.7 µM'),
  ('COc1ccc(/C=C/C2c3ccc(OC)cc3CCN2C(=O)c2cccc(Cl)c2)cc1 (racemic)', 'Ionotropic glutamate receptor NMDA 1/2D (Rattus norvegicus, UniProt P35439+Q62645)', '1 µM'),
  ('COc1ccc(OCC2c3ccc(OCc4ccccc4)cc3CCN2C(=O)c2cccc(Br)c2)cc1 (stereo not drawn)', 'Ionotropic glutamate receptor NMDA 1/2D (Rattus norvegicus, UniProt P35439+Q62645)', '0.3 µM'),
  ('COc1ccc(OCC2c3c(cc(OC)cc3OC)CCN2C(=O)c2cccc(Br)c2)cc1 (racemic)', 'Ionotropic glutamate receptor NMDA 1/2D (Rattus norvegicus, UniProt P35439+Q62645)', '7.8 µM'),
  ('COc1ccc(OCC2c3ccc(OC)cc3CCN2C(=O)c2cccc(Br)c2)cc1 (racemic)', 'Ionotropic glutamate receptor NMDA 1/2D (Rattus norvegicus, UniProt P35439+Q62645)', '2.9 µM'),
  ('COc1ccc(OCC2c3cc(OC)c(OC)cc3CCN2C(=O)c2cccc(Br)c2)cc1 (racemic)', 'Ionotropic glutamate receptor NMDA 1/2D (Rattus norvegicus, UniProt P35439+Q62645)', '2.2 µM'),
  ('COc1ccc(/C=C/C2c3cc(OC)c(OC)cc3CCN2C(=O)c2cccc(Br)c2)cc1 (racemic)', 'Ionotropic glutamate receptor NMDA 1/2D (Rattus norvegicus, UniProt P35439+Q62645)', '2.8 µM');
